The origin of these recorded values is the supplement of paper PMC10724198.

system: Saccharomyces cerevisiae; experiment: protein stability index of tFT-peptide fusion (C-terminal peptide) (PSI (0-1 scale)); higher = more stable (slower turnover); settings: genetic background: das1 deletion; temperature: 30 C
Please respond with reported protein stability index for every item in the list.
One number for each entry.

Record excerpt, results attached:
1. TLLSSIFLCLVL 0.477
2. FGFFRLVIVCFR 0.175
3. FFFFSMFSFFIP 0.485
4. SPSFLVIFTMLL 0.433
5. QNVKRIVRHMLT 0.658

Give one value of protein stability index per listed sequence.
1. LCLLCWIPCSFR
2. VGSSSGRLLYLC
3. RSIAFLLGQFLS

0.451
0.633
0.68

Give one value of protein stability index per listed sequence.
1. FPLGMFWVCFFV
2. FFDLSLYSLCLC
3. YYKGGYLYLRLS

1: 0.357; 2: 0.466; 3: 0.454

Give one value of protein stability index per listed sequence.
1. SFQLVFLCVLIW
2. GVFLVWWVGFWV
3. ICFFQGVVVLFR
4. SLRKRILCRFEY

0.155
0.25
0.312
0.655

====

system: Saccharomyces cerevisiae; assay: protein stability index of tFT-peptide fusion (C-terminal peptide) (PSI (0-1 scale)); higher = more stable (slower turnover); conditions: genetic background: das1 deletion; temperature: 30 C
REPORTED PROPERTY: protein stability index
Give bare numbers.

Record excerpt, results attached:
SEQUENCE TEXT	TARGET DESC	REPORTED PROPERTY	DATA VALUE
GLQKKNIKIHGF [SUI1 C-terminal 12 aa]	Saccharomyces cerevisiae	protein stability index	0.699
NIILNWIYPYQR [COX18 C-terminal 12 aa]	Saccharomyces cerevisiae	protein stability index	0.703
SKGKNSESGGIF [PPR1 C-terminal 12 aa]	Saccharomyces cerevisiae	protein stability index	0.699
KSLRSSFGKKLI [PHS1 C-terminal 12 aa]	Saccharomyces cerevisiae	protein stability index	0.706
DYKLRELIYDTI [AIP5 C-terminal 12 aa]	Saccharomyces cerevisiae	protein stability index	0.701

Give one value of protein stability index per listed sequence.
1. KNKKNKKKGKKK [CHS5 C-terminal 12 aa]
2. TASFAGSKKTFD [NSR1 C-terminal 12 aa]

1. 0.694
2. 0.706

Give one value of protein stability index per listed sequence.
1. PICIVGNFIPLS [RDS2 C-terminal 12 aa]
2. NVKSSTQEKDSK [SGN1 C-terminal 12 aa]
3. VKFGLQMAYLQS [YMR007W C-terminal 12 aa]

1: 0.689; 2: 0.706; 3: 0.702

Recorded protein stability index (sequence KDGFVLYSYGQK [SKP2 C-terminal 12 aa] ): 0.69

====

tested on: Saccharomyces cerevisiae; assay: protein stability index of tFT-peptide fusion in deletion strain of DOA10 (PSI (0-1 scale)); higher = more stable (slower turnover)
Please respond with reported protein stability index for every item in the list.
Answers are plain numbers.

Record excerpt, results attached:
1) RQLRVLLPLYFR 0.665
2) RVTRLDNIYFRI 0.702

Give one value of protein stability index per listed sequence.
1. GLPMCSVGCWFR
2. CLVFLPILLFFR
3. AITLWMCPLLLR

1: 0.699; 2: 0.416; 3: 0.611

Give one value of protein stability index per listed sequence.
1. CLVSLPILLSFR
2. GLYYCSVGCWFR
3. GLYMCSVGCTFR

[0.631, 0.605, 0.64]

Give one value of protein stability index per listed sequence.
1. CLVSLPIMLFFR
2. CLVSLPELLFFR

1: 0.607; 2: 0.692

Give one value of protein stability index per listed sequence.
1. RSLRVLLHLYFR
2. RSLRVTLPLYFR
3. CLVSLMILLFFR
4. CLVSFPILLFFR
5. VLVSLPILLFFR
6. RSLRVLLPLYFRF

0.605
0.676
0.398
0.583
0.56
0.584

Give one value of protein stability index per listed sequence.
1. GLYMCSVSCWFR
2. RSSRVLLPLYFR
3. CLVSLPILVFFR
4. CLVSSPILLFFR
5. GNYMCSVGCWFR
6. AITLPTCPLLLR

1. 0.446
2. 0.699
3. 0.512
4. 0.645
5. 0.699
6. 0.681

Give one value of protein stability index per listed sequence.
1. RVTRLQAIYFRI
2. ALYMCSVGCWFR
3. RILRVLLPLYFR
4. GLYMCSVGCWDR
5. RYLRVLLPLYFR

1: 0.402; 2: 0.638; 3: 0.654; 4: 0.665; 5: 0.659

Give one value of protein stability index per listed sequence.
1. CLVSLPILFFFR
2. GLYMCSVGCIFR
3. RSLRVLWPLYFR

1: 0.59; 2: 0.637; 3: 0.676

Give one value of protein stability index per listed sequence.
1. CLVSLPILLFFM
2. GLIMCSVGCWFR
3. CLVSLPIHLFFR
4. CLVSLPILHFFR
5. VVTRLDAIYFRI
6. RCTRLDAIYFRI

1: 0.479; 2: 0.39; 3: 0.669; 4: 0.667; 5: 0.671; 6: 0.674
